assay-explanation: COV-362 Cancer Cell Toxicity qHTS against the NCATS CANVASS Library (AID 1347352)
cond: COV-362 viability, CellTiter-Glo luminescence, 72 h; series mostly up to 38.3 µM
Inconclusive results are not listed. Calls of active or inactive are those of the source. The call rests on the fitted dose curve; in most records, active means well fitted cell-killing curve with a large enough effect; inconclusive means small, poorly fitted or top-dose-only effect; inactive means flat fitted curve, though single readings scatter.
Labels: Y (active), N (inactive)

>>> print(df.to_string())
                                   compound  assigned_label
0  COC(=O)[C@]1([C@H]2CCC(=O)O2)CC(=O)c2c(O)cc(C)cc2O1               N
1  C=C(C)CC[C@H](Cc1c(O)cc(O)c2c1O[C@H](c1ccc(O)cc1)CC2=O)C(=C)C               N
2  C=C1C(=O)O[C@H]2[C@H]1CCC(C)=C1CC[C@@](C)(O)[C@@H]12               Y
3  COC(=O)[C@@]12Oc3cccc(O)c3C(O)=C1C(=O)C[C@H](C)[C@H]2O               N
4  O=C1CC(c2ccc(O)cc2)Oc2cc(O)ccc21 (centres undefined)               N
5  COc1cc2ccc(=O)oc2c(O)c1O[C@@H]1O[C@H](CO)[C@@H](O)[C@H](O)[C@H]1O               N
6  CC(=O)N[C@H](C)c1nc(/C=C/C=C/C(=O)CC2CC(=O)CC[C@]2(C)O)cs1 (some centres undefined)               N
7  COC1C(C)OC(OCC23C[C@@H]4[C@H](C)CC[C@H]4C4(C=O)CC2C=C(C(C)C)C34C(=O)O)[C@@H](O)[C@H]1O (some centres undefined)               N
8  C[C@]12CCC[C@](C)(C(=O)O)[C@@H]1CC[C@@]1(C)c3cocc3CC[C@H]21               N

====

subject-of-test: Dual specificity protein kinase CLK4 (Homo sapiens) (UniProt Q9HAZ1)
Sequence (Q9HAZ1 whole entry, looked up): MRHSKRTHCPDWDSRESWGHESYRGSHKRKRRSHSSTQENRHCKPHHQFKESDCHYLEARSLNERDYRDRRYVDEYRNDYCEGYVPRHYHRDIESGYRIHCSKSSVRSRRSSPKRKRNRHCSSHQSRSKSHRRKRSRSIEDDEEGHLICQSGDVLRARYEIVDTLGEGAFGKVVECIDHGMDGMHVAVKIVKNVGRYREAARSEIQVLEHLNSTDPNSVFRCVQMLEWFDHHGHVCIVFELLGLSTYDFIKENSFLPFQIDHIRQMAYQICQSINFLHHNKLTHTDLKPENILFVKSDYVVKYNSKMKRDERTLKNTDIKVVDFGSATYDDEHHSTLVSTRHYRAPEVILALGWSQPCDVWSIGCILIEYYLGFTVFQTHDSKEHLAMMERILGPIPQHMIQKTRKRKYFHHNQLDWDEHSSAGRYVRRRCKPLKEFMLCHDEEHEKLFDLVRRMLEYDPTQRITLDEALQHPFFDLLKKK
assay-explanation: qHTS Assay for Inhibitors of CDC-like Kinase 4 (ADP-FP Assay) (AID 1795);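 further: recombinant human CLK4 phosphorylating RS repeat peptide at 1 µM ATP; on the % scale 0 is the no-effect control and ±100 the full control effect; nearly all actives have a fitted effect of over 60% in size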
cond: Transcreener ADP fluorescence polarization; series mostly up to 50 µM
Inconclusive results are not listed. Active and inactive are the calls of the source. The call rests on the fitted dose curve; in most records, active means well fitted inhibition curve with a large enough effect; inconclusive means small, poorly fitted or top-dose-only effect; inactive means flat fitted curve, though single readings scatter.
readout-type: outcome

                                given_smiles                           subject_of_test  endpoint_result
 0  COCCn1c(=O)c(-c2cccc(C#N)c2)nc2cnc(Oc3ccccc3)nc21  Dual specificity protein kinase CLK4 (Homo sapiens) (UniProt Q9HAZ1)         inactive
 1        Cc1nc2cnc(N3CCOCC3)nc2n(C2CC2)c1=O  Dual specificity protein kinase CLK4 (Homo sapiens) (UniProt Q9HAZ1)         inactive
 2              Cc1nc2cncnc2n(Cc2ccccc2)c1=O  Dual specificity protein kinase CLK4 (Homo sapiens) (UniProt Q9HAZ1)         inactive
 3  CN(C)C(=O)c1ccc(-c2ccc3ncnc(N(C)C)c3c2)cc1  Dual specificity protein kinase CLK4 (Homo sapiens) (UniProt Q9HAZ1)         inactive
 4  Cn1cc(-c2nc3cncnc3n(-c3ccccc3)c2=O)c2ccccc21  Dual specificity protein kinase CLK4 (Homo sapiens) (UniProt Q9HAZ1)         inactive
 5         Cc1noc(C)c1-c1cc(NCCN2CCOCC2)ncn1  Dual specificity protein kinase CLK4 (Homo sapiens) (UniProt Q9HAZ1)         inactive
 6         Cc1nc2cnc(N3CCN(C)CC3)nc2n(C)c1=O  Dual specificity protein kinase CLK4 (Homo sapiens) (UniProt Q9HAZ1)         inactive
 7  O=c1c(-c2ccc(F)cc2)nc2cnc(Nc3ccccc3)nc2n1C[C@H]1CCCO1  Dual specificity protein kinase CLK4 (Homo sapiens) (UniProt Q9HAZ1)         inactive
 8  COc1ccc(-n2c(=O)c(-c3cccs3)nc3cncnc32)cc1  Dual specificity protein kinase CLK4 (Homo sapiens) (UniProt Q9HAZ1)         inactive
 9  O=c1c(CCc2ccccc2)nc2cnc(N3CCOCC3)nc2n1Cc1cccs1  Dual specificity protein kinase CLK4 (Homo sapiens) (UniProt Q9HAZ1)         inactive
10  Cn1cc(-c2nc3cnc(N4CCNCC4)nc3n(C)c2=O)c2ccccc21  Dual specificity protein kinase CLK4 (Homo sapiens) (UniProt Q9HAZ1)         inactive

====

Reported Potency values for a set of molecules
assay-explanation: qHTS Assay for Identification of Small Molecule Agonists for Hypoxia Response Element Signaling Pathway (AID 914); further: potency means the concentration at half of the fitted maximal effect
cond: ME-180 (cervical carcinoma) HRE-bla reporter, beta-lactamase ratio, CoCl2, 17 h
Records with an inconclusive call do not appear. Active and inactive are the calls of the source. Calls come from the whole dose curve; as a rule, active = well fitted activation curve with a large enough effect in the signal ratio, with a control signal flat (not every such curve was filed as active); inconclusive = small, poorly fitted or top-dose-only effect, or effect the other way, or a change in a side signal; inactive = flat fitted curve, though single readings scatter; the % refers to the signal ratio.
readout-type: Potency

>>> print(df.to_string())
                               given_smiles  readout_type    endpoint_result
0  COCCn1c(=O)c(-c2ccccc2)nc2cnc(N3CCNCC3)nc21       Potency   3.16 µM (active)
1  COc1ccc(-c2nc3cnc(Nc4ccccc4)nc3n(Cc3cccs3)c2=O)cc1       Potency   3.16 µM (active)
2  COc1cccc(Cn2c(=O)c(-c3cc(F)cc(F)c3)nc3cnc(N(C)C)nc32)c1       Potency  0.398 µM (active)

====

Tested on: Zika virus NS2B-NS3 protease (linked construct)
assay-explanation: Primary screen NINDS Rhodamine qHTS for Zika virus inhibitors (AID 1347160); further: nearly all actives have a fitted effect of over 55% in size
cond: purified NS2B-NS3 protease, Rhodamine110 substrate fluorescence; series mostly up to 112 µM
Records with an inconclusive call do not appear. Activity calls are given as the source filed them. Calls come from the whole dose curve; as a rule, active = well fitted inhibition curve with a large enough effect; inconclusive = small, poorly fitted or top-dose-only effect; inactive = no such curve, though single readings can be large or run the other way.
Possible outcomes: label 1 (active), label 0 (inactive)

compound	subject-of-test	assigned-label
C[C@H]1C=C[C@H]2CCCC[C@@H]2[C@H]1C(=O)[C@H]1CC2=C(C(=O)O)CCN2C1=O	Zika virus NS2B-NS3 protease (linked construct)	label 1
C=C[C@@]1(C)CC[C@@H]([C@H](C)C(=O)/C=C/C(C)(C)O)O1	Zika virus NS2B-NS3 protease (linked construct)	label 1
C/C(=C\CC[C@@H](C)[C@H]1CC[C@]2(C)C3=CCC4C(C)(C)[C@@H](O)C[C@@H](O)[C@]4(C)C3[C@H](O)C[C@@]12C)CO (some centres not stated)	Zika virus NS2B-NS3 protease (linked construct)	label 1
COc1cc(/C=C/C(=O)OC[C@@H](Cc2ccc(O)c(OC)c2)[C@@H](COC(=O)/C=C/c2ccc(O)c(OC)c2)Cc2ccc(O)c(OC)c2)ccc1O	Zika virus NS2B-NS3 protease (linked construct)	label 1
C/C=C/C1C=CC2CC(C)CC(C)C2C1C(=O)CC(=O)NC(CO)C/C=C/CCCCC (configuration not stated)	Zika virus NS2B-NS3 protease (linked construct)	label 1
C/C=C1/CN2C3CC1C1C=CC(=O)N4c5ccccc5[C@@]3(C[C@@H]2C2=C[C@H]3C5CC6N(CC[C@@]67c6ccccc6N(C2=O)[C@@H]37)C/C5=C/C)[C@H]14 (some centres not stated)	Zika virus NS2B-NS3 protease (linked construct)	label 1
CC(C)=CCC/C(C)=C/Cc1cc([C@@H]2CC(=O)c3c(cc(O)c(CC=C(C)C)c3O)O2)ccc1O	Zika virus NS2B-NS3 protease (linked construct)	label 1
Cc1cc(C)c(O)c(C(=O)CC2CC(=O)NC(=O)C2)c1	Zika virus NS2B-NS3 protease (linked construct)	label 0
C/C1=C/[C@@H](C)[C@H](O)[C@@H](O)/C=C/CC/C=C/C(=O)O[C@@H]1[C@H](C)C(=O)/C=C/CC1CC(=O)NC(=O)C1	Zika virus NS2B-NS3 protease (linked construct)	label 0
C/C(=C\[C@H](C)C(=O)C[C@H](O)CC1CC(=O)NC(=O)C1)[C@@H]1OC(=O)CCCC/C=C/C[C@@H](O)[C@@H]1C	Zika virus NS2B-NS3 protease (linked construct)	label 0
C=C[C@](Cl)(CBr)CCC=C(C)C	Zika virus NS2B-NS3 protease (linked construct)	label 0
O[C@H]1c2ccccc2-c2c3c(cc4c2[C@@H]1NCC4)OCO3	Zika virus NS2B-NS3 protease (linked construct)	label 1
C=C1CC[C@@H](O[C@H]2C[C@@](O)([C@H](C)NC(=O)c3[nH]c(C)c(Cl)c3Cl)[C@H](O)[C@@H](C)O2)[C@@H]2C=C[C@H](C)C(/C(O)=C3/C(=O)[C@H](C(C)C)N([C@@H]4O[C@H](C)[C@H](OC(N)=O)[C@H](OC(C)=O)[C@@H]4OC)C3=O)[C@@H]12 (some centres not stated)	Zika virus NS2B-NS3 protease (linked construct)	label 1
O=C(OC[C@H]1O[C@@H](OC(=O)c2cc(O)c(O)c(O)c2)[C@H](OC(=O)c2cc(O)c(O)c(O)c2)[C@@H](OC(=O)c2cc(O)c(O)c(O)c2)[C@@H]1OC(=O)c1cc(O)c(O)c(O)c1)c1cc(O)c(O)c(O)c1	Zika virus NS2B-NS3 protease (linked construct)	label 1
COc1cc2c(c(O)c1O)C(=O)c1c(coc1C)C2=O	Zika virus NS2B-NS3 protease (linked construct)	label 1
CO[C@H]1[C@@H](OC(=O)/C(C)=C\[C@@H]2O[C@@H]2[C@H]2O[C@H]2C)[C@H](O)[C@H](OCC23C[C@@H]4[C@H](C)CC[C@H]4C4(C=O)CC2C=C(C(C)C)C34C(=O)O)O[C@@H]1C (some centres not stated)	Zika virus NS2B-NS3 protease (linked construct)	label 1
C/C=C(/C)c1c(Cl)c(O)c(C)c2c1Oc1c(Cl)c(O)c(Cl)c(C)c1C(=O)O2	Zika virus NS2B-NS3 protease (linked construct)	label 1
